# MEASUREMENT TARGET: NDM-1 (Klebsiella pneumoniae, UniProt C7C422)
# Sequence (C7C422 whole entry, looked up, species assumed): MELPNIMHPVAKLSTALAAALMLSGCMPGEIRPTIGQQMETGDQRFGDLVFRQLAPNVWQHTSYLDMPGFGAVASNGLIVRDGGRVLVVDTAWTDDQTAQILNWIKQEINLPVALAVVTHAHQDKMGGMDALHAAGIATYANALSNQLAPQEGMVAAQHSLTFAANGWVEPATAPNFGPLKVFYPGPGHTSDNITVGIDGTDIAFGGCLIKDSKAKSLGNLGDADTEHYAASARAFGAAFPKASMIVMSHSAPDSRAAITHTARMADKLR

COMPOUND: NC1CCN(c2ccc(S(=O)(=O)N[C@@H]3CCNC3)c(S(N)(=O)=O)c2-c2nn[nH]n2)C(=O)C1 (stereo partly shown)
IC50 (nM): 7.19
//
COMPOUND: NC[C@@H](O)CNS(=O)(=O)c1ccc(N2CCC(NCCO)CC2)c(-c2nn[nH]n2)c1S(N)(=O)=O [Example 142, bis(2,2,2-trifluoroacetate)]
IC50 (nM): 7.59
//
COMPOUND: NC(=O)[C@H]1CN(c2ccc(S(=O)(=O)N[C@@H]3CCNC3)c(S(N)(=O)=O)c2-c2nn[nH]n2)CCN1
IC50 (nM): 1.44
//
COMPOUND: NCCN1CCN(c2ccc(S(=O)(=O)NC[C@H](O)CN)c(S(N)(=O)=O)c2-c2nnn[nH]2)CC1
IC50 (nM): 1.4
